# target-or-system: Recombinant human MMP19 catalytic domain (Homo sapiens, UniProt Q99542)
# Construct: Recombinant human MMP19 catalytic domain
# Sequence (Q99542 98-256 limits assumed): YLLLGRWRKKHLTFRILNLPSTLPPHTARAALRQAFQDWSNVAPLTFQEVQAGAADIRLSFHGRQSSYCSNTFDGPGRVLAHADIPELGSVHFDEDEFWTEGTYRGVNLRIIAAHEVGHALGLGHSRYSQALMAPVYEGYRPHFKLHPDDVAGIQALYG
# assay-summary: MMP19 isolated enzyme assay (fluorogenic substrate)
# recorded-conditions: 120 min, 35° C., read-out: hMMP19 IC50
property: pIC50
Reminder that pIC50 is minus the log10 of a molar concentration.

Consider "CC[C@]1(CS(=O)(=O)N2CCc3cc(-c4cnc(C5CC5)nc4)ccc3C2)NC(=O)NC1=O" . Its measured pIC50 is 5.42

###

# target-or-system: Recombinant human MMP9 catalytic domain (Homo sapiens, UniProt P14780)
# Sequence (P14780 with tags, fused parts or gaps DEL216-390 limits assumed): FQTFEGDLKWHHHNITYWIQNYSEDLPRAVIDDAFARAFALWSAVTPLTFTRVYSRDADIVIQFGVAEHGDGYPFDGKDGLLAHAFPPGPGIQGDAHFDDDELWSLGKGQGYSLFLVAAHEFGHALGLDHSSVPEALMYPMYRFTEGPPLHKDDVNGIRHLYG
# assay-summary: MMP9 isolated enzyme assay (fluorogenic substrate)
# recorded-conditions: 30 min, RT, read-out: hMMP9 IC50
pIC50: −log10 of the molar value.
property: pIC50

>  <compound-smiles>
C[C@]1(CS(=O)(=O)N2CCc3cc(-c4ccc(C5CC5)nc4)ncc3C2)NC(=O)NC1=O

>  <endpoint-value>
7.67

$$$$

a = C[C@]1(CS(=O)(=O)N2CCc3cc(-c4cnc(C5CC5)nc4)ccc3C2)NC(=O)NC1=O
b = CC[C@]1(CS(=O)(=O)N2CCc3cc(-c4cnc(C5CC5)nc4)ccc3C2)NC(=O)NC1=O
(Q) Field: lower pIC50 | Options: a / b State your choice using its label.
(A) a
